Cited source: PubChem BioAssay (NCI)

System: HCC-2998 colon
ASSAY DETAILS: NCI-60 one-dose screen, 48 h (100 = growth as untreated, 0 = no growth, -100 = all killed)
ASSAY CONDITIONS: 10 µM unless noted
Experimental: Growth inhibition of the HCC-2998 human tumor cell line is measured as a screen for anti-cancer activity. Cells are grown in 96 well plates and exposed to the test compound for 48 hours. Compounds are tested at a single concentration, which is 10^-5 M for most compounds. The reported endpoint is percent growth (GI% or GIPRCNT), where numbers from 0 - 100% represent growth inhibition, and numbers from -100% - 0 represent cell death. For example, a value of 40 represents 60% growth inhibition. […]
The panel holds about 83,000 compounds, 20% with a hit somewhere; the sample as a whole holds those more often. Activity calls are given as the source filed them. The calls were made as follows: active = growth percent below 10; inactive = the rest.
EXPERIMENTAL READOUT: growth

Check out these entries, answers already filled in.
COMPOUND	EXPERIMENTAL READOUT	MEASUREMENT
Clc1ccc(-c2nc(-c3cccs3)no2)c(Cl)c1	growth	68% (inactive)
COc1ccc(Cn2c(NCCCN(C)C)nc(=O)n(Cc3ccc(F)cc3)c2=O)cc1	growth	101% (inactive)
CCOc1cc(C(C)(C)C)ccc1C1=N[C@H](c2ccc(Cl)cc2)[C@H](c2ccc(Cl)cc2)N1C(=O)N1CCN(CC#Cc2cccc3c2CN([C@@H]2CCC(=O)NC2=O)C3=O)CC1	growth	25.3% (inactive)
COc1ccc(Nc2ccnc(NCCCNc3ccnc4cc(Cl)ccc34)n2)cc1	growth	-74.9% (active)
COc1cc(-c2cc(C(=O)Nc3nc4ccccc4s3)nc3cc(-c4ccccc4)nn23)cc(OC)c1OC	growth	85.6% (inactive)
CCC(c1ccccc1)c1noc(CCN(CC)CC)n1 (stereo not given)	growth	106% (inactive)
COc1ccc(-c2cn(-c3ccccc3)c(-c3ccccc3)n2)cc1OC	growth	58.8% (inactive)
CC(NC(=O)C(C)Oc1ccc(Cl)cc1Cl)C(=O)O (stereo not given)	growth	94.4% (inactive)

Q: Please indicate growth recorded for Fc1ccc(-c2nnc(-c3c(-c4ccc(F)cc4)nc4ncccn34)o2)cc1
Ans: 111% (inactive)

Q: Hello, please tell me recorded growth for this one: O=C(NCCCO)c1cc(Cl)ccc1O
Ans: 21.4% (inactive)

###

Test system: SNB-75 CNS
ASSAY DETAILS: NCI-60 one-dose screen, 48 h (100 = growth as untreated, 0 = no growth, -100 = all killed)
ASSAY CONDITIONS: 10 µM unless noted
About 83,000 compounds went through this panel and 20% of them were active in at least one assay; those are over-represented in the sample as a whole.
EXPERIMENTAL READOUT: growth (%)
# unit: % | format: bare number

MOLECULE	DISPLAY UNIT	MEASUREMENT
O=C(Nc1nc(-c2ccccc2)cs1)c1cc(O)c(O)c(O)c1	%	33.1
O=C1C2C3C=CC(O3)C2C(=O)N1Nc1ccccc1 (stereo unspecified)	%	93.3
O=C(C=C=Nc1ccccc1)C(=O)N=C=Cc1ccccc1	%	75.8

Q: Respond only with growth recorded for CC/C(=C\c1ccc(N(C)C)cc1)c1nc2ccccc2c(=O)[nH]1
Ans: 88.3

Q: // Input: COc1ccc(/C=N/NC(=O)c2ccc(S(C)(=O)=O)cc2)cc1OC . Output its growth only.
Ans: 85.9

Q: Give recorded growth. CN(C)c1nc(-c2ccco2)n2nc(-c3ccco3)cc2n1
Ans: 81.8

Q: Annotate the molecule O=C1NCC(Nc2ccc(Br)cc2Cl)C(=O)N1 (stereo unspecified) with its measured growth.
Ans: 91

Q: Please report growth for the following molecule: ClC1=C(Cl)C(Cl)=C(Cl)C1=Cc1ccc(Cl)cc1
Ans: 97.5

Q: Entry Cc1cc(Cl)ccc1Nc1nc(C(F)(F)F)ccc1C(=O)NCC(=O)N/N=C/c1c(Cl)cccc1Cl needs its growth filled in; supply it.
Ans: 97.7

Q: Consider the molecule COC(=O)CCC1=C(CC(=O)OC)C(C)=N/C1=C\c1[nH]c(-c2ccc[nH]2)cc1OC and give its recorded growth.
Ans: 12.9

Q: Give reported growth value for Oc1ccccc1/C=N\Nc1ccccc1
Ans: 71.9

###

Test system: SF-295 CNS
ASSAY DETAILS: NCI-60 one-dose screen, 48 h (100 = growth as untreated, 0 = no growth, -100 = all killed)
ASSAY CONDITIONS: 10 µM unless noted
Compounds without any hit were thinned out: in the full panel of roughly 83,000, 20% have a hit. Calls of active or inactive are those of the source. The calls were made as follows: active = growth percent below 10; inactive = the rest.
EXPERIMENTAL READOUT: growth

COMPOUND	growth
CSC1=Nc2c(c(C)c(-c3ccccc3)n2CCCN2CCCCC2)C2=NC(=O)C[C@H](C)N12	38.9% (inactive)

Now turn to the next compound.
Q: Complete the entry with growth for O=C(O)c1ccc(NC(=O)c2ccc(Nc3ccnc(C(F)(F)F)c3)cc2)cc1
Ans: 108% (inactive)

###

Overview of recorded growth for various molecules
Tested on: SK-MEL-28 melanoma
ASSAY DETAILS: NCI-60 one-dose screen, 48 h (100 = growth as untreated, 0 = no growth, -100 = all killed)
ASSAY CONDITIONS: 10 µM unless noted
Compounds without any hit were thinned out: in the full panel of roughly 83,000, 20% have a hit.
Reply numerically in %, unit not repeated.

Q: Look up and report measured growth (SK-MEL-28 melanoma) for the following molecule: CCc1[nH]nc(-c2ccc(OC)cc2)c1-c1ccccc1OCCN(CC)CC
Ans: 107

Q: Recall the reported growth of CCC1=C(c2ccc(OC)cc2)C(C)(C)Oc2cc(O)c(CN3CCCC3)cc21 on SK-MEL-28 melanoma and write it down.
Ans: 101

Q: Write down measured growth (SK-MEL-28 melanoma) for this molecule. COc1ccc2c(c1)nc(N)c1c3ccccc3cn21
Ans: 78.8

Q: Supply growth measured with SK-MEL-28 melanoma for COc1ccc(-c2cc(Cc3cccs3)c(=O)n(Cn3ccc4ccccc43)n2)cc1 .
Ans: 114

###

Test system: LOX IMVI melanoma
ASSAY DETAILS: NCI-60 one-dose screen, 48 h (100 = growth as untreated, 0 = no growth, -100 = all killed)
ASSAY CONDITIONS: 10 µM unless noted
The panel holds about 83,000 compounds, 20% with a hit somewhere; the sample as a whole holds those more often.
1 if growth is below 90%. 0 if not; exact matches included in 0.

Examples with answers:
MOLECULE	CLASSIFICATION
CC(c1ccccn1)C(C)(O)C(C)c1ccccn1 (stereo not drawn)	0
COc1ccc(-c2cnnn2-c2cc(OC)c3c(c2)OCO3)cc1	1
Cc1ccc(C=C2C(Cl)=C(Cl)C(Cl)=C2Cl)cc1	1

Q: Is 90% strictly greater than the molecule's reported growth? molecule: c1ccc(-n2nnnc2-c2cccc3ccccc23)cc1
Ans: 1

Q: Consider the molecule O=C(CSc1nc2c(n1Nc1ccccc1)-c1ccccc1SC2)Nc1nc(-c2ccc(Cl)cc2)cs1 . Is its growth strictly less than 90%?
Ans: 1

Q: Given Cn1c(N)c(N=O)c(=O)[nH]c1=O , is recorded growth strictly lower than 90%?
Ans: 0

Q: # TODO verify growth < 90% strictly for this molecule: O=C1Nc2ccc(F)cc2/C1=C/c1nc(-c2ccc(F)cc2)n2ccccc12
Ans: 0

Q: growth strictly < 90% for this molecule? CCSc1nnc2n(Cc3ccccc3)c(=O)c3c(C)c(C(N)=O)sc3n12
Ans: 0

Q: Please let me know if O=C(O)C(=O)O shows growth below 90%.
Ans: 0

###

Reported growth values are given for each entry in this list.
Test system: SK-OV-3 ovarian
ASSAY DETAILS: NCI-60 one-dose screen, 48 h (100 = growth as untreated, 0 = no growth, -100 = all killed)
ASSAY CONDITIONS: 10 µM unless noted
This is part of a sample that, as a whole, favours compounds with a hit. Of some 83,000 tested, about 20% had one in any assay. Active and inactive are the calls of the source. The calls were made as follows: active = growth percent below 10; inactive = the rest.

Reference set (4 entries):
SMILES REPR	SYSTEM TESTED	EXPERIMENTAL READOUT	MEASUREMENT
COc1ccc2[nH]cc(/C=C3/C(=O)Nc4ccc(Cl)cc43)c2c1	SK-OV-3 ovarian	growth	22.5% (inactive)
Cc1nn(-c2ccccc2)c2nc(Cl)c(/C=C/C(=O)c3ccccc3)c(-c3ccccc3)c12	SK-OV-3 ovarian	growth	102% (inactive)
CC/C(=C\c1ccc(N(C)C)cc1)c1nc2ccccc2c(=O)[nH]1	SK-OV-3 ovarian	growth	109% (inactive)
CCN(CC)CCNc1ccc(Cl)cc1Cl	SK-OV-3 ovarian	growth	92.5% (inactive)

We next turn to a different compound, shown below.
Q: Please report growth for the following compound: CCC[C@H](N[C@@H](C)C(=O)N1[C@H](C(=O)O)C[C@@H]2CCCC[C@@H]21)C(=O)OCC
Ans: 113% (inactive)

###

System: CAKI-1 renal
ASSAY DETAILS: NCI-60 one-dose screen, 48 h
ASSAY CONDITIONS: 10 µM unless noted
The panel holds about 83,000 compounds, 20% with a hit somewhere; the sample as a whole holds those more often. Activity calls are given as the source filed them. How the source made its calls: active means growth percent below 10; inactive means the rest.
Mark one answer only. Choices: true (1) (active), false (0) (inactive)

COMPOUND	CLASSIFICATION
COc1cc(C2NC(c3ccc(Cl)cc3)C(C)/C(=N/NC(N)=S)C2C)cc(OC)c1OC (stereo not drawn)	false (0)
CC(=O)Oc1c(C)c(OC(C)=O)c2c(c1C(C)=O)OC1CC(=O)C(C(C)=O)=C(O)C21C (stereo not drawn)	false (0)
Cc1nn(-c2ccc(Cl)cc2)c2nc3c(nc12)C(=O)C(=O)c1ccccc1-3	false (0)
CC(=O)Nc1ccc2c(c1)Cc1c(F)c(F)c(F)c(F)c1-2	false (0)
O=C(Nc1cccc([N+](=O)[O-])c1)c1cccc(C(=O)Nc2cccc([N+](=O)[O-])c2)c1	false (0)
CCCCCCC(C)(O)c1ccccc1 (stereo not drawn)	false (0)
CN(C)CCCN1c2nc3ccccc3cc2Sc2cc3ccccc3nc21	true (1)
CCCCn1c(Cc2ccc(Cl)cc2)nc2cc(OC)c(OC)cc2c1=O	false (0)
O=C(NCCc1ccccc1)C1CCC(=O)N1Cc1ccc(Br)cc1 (stereo not drawn)	false (0)
O=C1CN(CO)C(=O)CN1CO	false (0)

Pending compound:
Q: Which outcome did this test record for the compound COc1ccc(Cn2cc3c(c2-c2ccccc2)CCc2cncnc2-3)cc1 ?
Ans: false (0)
